Test system: PBMC
Experiment: Cytotoxicity against human PBMC cells at 10 ug/mL after 24 hrs by MTT assay relative to DMSO-treated control
Format: cell-based
recorded_metric: Activity

Here's what some known entries look like.
[
  {
    "compound": "FC(F)(F)c1cccc2c1Sc1cc3ccccc3nc1N2",
    "Activity": "5%"
  },
  {
    "compound": "CS(=O)(=O)NCCCN1c2ccc(Cl)cc2Sc2cc3ccccc3nc21",
    "Activity": "Non-toxic"
  },
  {
    "compound": "Cc1ccc(S(=O)(=O)NCCCCN2c3ccccc3Sc3cc4ccccc4nc32)cc1",
    "Activity": "Non-toxic"
  },
  {
    "compound": "CN1CCCCC1CCN1c2ccccc2Sc2cc3ccccc3nc21 (stereo unspecified)",
    "Activity": "Non-toxic"
  },
  {
    "compound": "CC(=O)NCCCN1c2ccc(Cl)cc2Sc2cc3ccccc3nc21",
    "Activity": "Non-toxic"
  }
]

Hi team, please reply with Activity for each item in this list.
1. FC(F)(F)c1ccc2c(c1)Nc1nc3ccccc3cc1S2
2. Cc1ccc(S(=O)(=O)NCCCN2c3ccccc3Sc3cc4ccccc4nc32)cc1
3. CCOC(=O)NCCCCN1c2ccccc2Sc2cc3ccccc3nc21
4. CS(=O)(=O)NCCCN1c2ccccc2Sc2cc3ccccc3nc21
5. CC(=O)NCCCN1c2ccccc2Sc2cc3ccccc3nc21
6. O=C(NCCCl)NCCCN1c2ccc(Cl)cc2Sc2cc3ccccc3nc21

Reply text:
1: Non-toxic; 2: Non-toxic; 3: Non-toxic; 4: Non-toxic; 5: Non-toxic; 6: 15.9%

Hi team, please reply with Activity for each item in this list.
1. CSc1ccc2c(c1)Sc1cc3ccccc3nc1N2CCCCNC(=O)NCCCl
2. CCOC(=O)NCCCN1c2ccc(SC)cc2Sc2cc3ccccc3nc21
3. Clc1ccc2c(c1)Nc1nc3ccccc3cc1S2
4. CCOC(=O)NCCCN1c2ccc(Cl)cc2Sc2cc3ccccc3nc21
5. CSc1ccc2c(c1)Sc1cc3ccccc3nc1N2CCCNC(=O)NCCCl
6. CSc1ccc2c(c1)Sc1cc3ccccc3nc1N2CCCCNS(=O)(=O)c1ccc(C)cc1
7. Clc1ccc2c(c1)Sc1cc3ccccc3nc1N2
8. O=C(NCCCl)NCCCCN1c2ccc(Cl)cc2Sc2cc3ccccc3nc21

Reply text:
1: 4.2%; 2: Non-toxic; 3: Non-toxic; 4: Non-toxic; 5: Non-toxic; 6: Non-toxic; 7: Non-toxic; 8: 19.2%

Hi team, please reply with Activity for each item in this list.
1. Brc1cccc2c1Sc1cc3ccccc3nc1N2
2. FC(F)(F)c1ccc2c(c1)Sc1cc3ccccc3nc1N2
3. Brc1ccc2c(c1)Sc1cc3ccccc3nc1N2
4. Cc1ccc(S(=O)(=O)NCCCN2c3ccc(Cl)cc3Sc3cc4ccccc4nc32)cc1
5. Cc1ccc2c(c1)Sc1cc3ccccc3nc1N2
6. Clc1cccc2c1Sc1cc3ccccc3nc1N2
7. CS(=O)(=O)NCCCCN1c2ccc(Cl)cc2Sc2cc3ccccc3nc21

Reply text:
1. Non-toxic
2. Non-toxic
3. Non-toxic
4. Non-toxic
5. 2.4%
6. Non-toxic
7. Non-toxic

Hi team, please reply with Activity for each item in this list.
1. O=C(NCCCl)NCCCN1c2ccccc2Sc2cc3ccccc3nc21
2. Clc1ccc2c(c1)Sc1cc3ccccc3nc1N2CCN1CCCCC1
3. Fc1ccc2c(c1)Sc1cc3ccccc3nc1N2
4. CSc1ccc2c(c1)Sc1cc3ccccc3nc1N2CCCNS(=O)(=O)c1ccc(C)cc1
5. CSc1ccc2c(c1)Sc1cc3ccccc3nc1N2CCCCNS(C)(=O)=O

Reply text:
["8.5%", "19.2%", "50%", "Non-toxic", "Non-toxic"]

Hi team, please reply with Activity for each item in this list.
1. c1ccc2c(c1)Nc1nc3ccccc3cc1S2
2. CS(=O)(=O)NCCCCN1c2ccccc2Sc2cc3ccccc3nc21
3. O=C(NCCCl)NCCCCN1c2ccccc2Sc2cc3ccccc3nc21
4. CCOC(=O)NCCCCN1c2ccc(Cl)cc2Sc2cc3ccccc3nc21
5. CSc1ccc2c(c1)Sc1cc3ccccc3nc1N2CCCCNC(C)=O
6. CC(=O)NCCCCN1c2ccccc2Sc2cc3ccccc3nc21

Reply text:
1. Non-toxic
2. Non-toxic
3. 7.9%
4. Non-toxic
5. Non-toxic
6. Non-toxic

Hi team, please reply with Activity for each item in this list.
1. CSc1ccc2c(c1)Sc1cc3ccccc3nc1N2
2. CSc1ccc2c(c1)Sc1cc3ccccc3nc1N2CCCNS(C)(=O)=O
3. Cc1ccc(S(=O)(=O)NCCCCN2c3ccc(Cl)cc3Sc3cc4ccccc4nc32)cc1

Reply text:
Non-toxic
Non-toxic
Non-toxic

Hi team, please reply with Activity for each item in this list.
1. Brc1ccc2c(c1)Nc1nc3ccccc3cc1S2
2. CC(=O)NCCCCN1c2ccc(Cl)cc2Sc2cc3ccccc3nc21
3. CCOC(=O)NCCCN1c2ccccc2Sc2cc3ccccc3nc21

Reply text:
["Non-toxic", "Non-toxic", "Non-toxic"]

Hi team, please reply with Activity for each item in this list.
1. CSc1ccc2c(c1)Sc1cc3ccccc3nc1N2CCN1CCCCC1
2. CSc1ccc2c(c1)Sc1cc3ccccc3nc1N2CCCNC(C)=O
3. CCOC(=O)NCCCCN1c2ccc(SC)cc2Sc2cc3ccccc3nc21

Reply text:
1. 18%
2. Non-toxic
3. Non-toxic
